Data credit: paper PMC10385977

# assay system: human PD-L1 (Homo sapiens)
# Construct: purchased Cisbio Bioassays SAS 64PD1PEG
# Sequence (Q9NZQ7 19-238 limits assumed): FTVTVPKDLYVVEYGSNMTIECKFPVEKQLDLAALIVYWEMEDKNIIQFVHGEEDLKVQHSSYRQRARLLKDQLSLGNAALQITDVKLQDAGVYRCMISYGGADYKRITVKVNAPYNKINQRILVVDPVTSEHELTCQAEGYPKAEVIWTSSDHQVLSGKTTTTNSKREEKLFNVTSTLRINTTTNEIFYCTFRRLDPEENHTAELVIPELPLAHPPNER
# method description: HTRF PD-1/PD-L1 Binding Assay Kit (Cisbio)
# run parameters: BEI = −logIC50/(molecular weight/1000)
value kind: BEI (binding efficiency index)

COc1nc(OCc2cccc(-c3ccccc3)c2C)ccc1CNCCN(C)C(C)=O 14.5
COc1nc(OCc2cccc(-c3ccccc3)c2C)ccc1CN(CCNC(C)=O)C(=O)OCCF 9.9
COc1nc(OCc2cccc(-c3ccccc3)c2C)ccc1CN(C)CCN(C)C(C)=O 13.1
COc1nc(OCc2cccc(-c3ccccc3)c2C)ccc1CN(C)CCNC(C)=O 14.7
COC(=O)[C@@H]1CCCCN1Cc1c(OC)cc(OCc2cccc(-c3ccccc3)c2C)cc1OC 10.7
COc1cc(OCc2cccc(-c3ccccc3)c2C)cc(OC)c1CN1CCCC[C@H]1C(=O)OCCF 11.4
